- Read-out: Cytochrome P450 (CYP24A1), CYP24A1 (gene 1591)
- testDetails: LTEA_HepaRG_CYP24A1: Life Technologies and Expression Analysis (LTEA) Assay for Cytochrome P450 (CYP24A1) using HepaRG (AID 2283478)
- protocolConditions: mRNA level, 48 h; actives raise or lower the signal
Active and inactive are the calls of the source. The calls were made as follows: active = hit-call score of the fitted dose curve at least 0.9, where 1 is the maximum; inactive = score below 0.9.
Respond with a class label; see y (active), n (inactive)

Worked cases, answers included:
[[record]]
compound = "OCC1CO1 (stereo not given)"
labelclass = "n"

[[record]]
compound = "c1cc2c3c(cccc3c1)CC2"
labelclass = "n"

[[record]]
compound = "CCOS(=O)(=O)OCC"
labelclass = "n"

[[record]]
compound = "CSC(C)(C)C=NO"
labelclass = "n"

[[record]]
compound = "c1nc[nH]n1"
labelclass = "y"

[[record]]
compound = "Cc1cccc(N)c1"
labelclass = "n"

[[record]]
compound = "O=P1(N(CCCl)CCCl)NCCCO1 (stereo not given)"
labelclass = "n"

[[record]]
compound = "COCCOCCO"
labelclass = "n"


[ask] Hi, sorry to bother you, what did the test record for O=C(O)C1C(C(=O)O)C2(Cl)C(Cl)=C(Cl)C1(Cl)C2(Cl)Cl (stereo not given) ?
[reply] n

[ask] Hi, sorry to bother you, what did the test record for Nc1cc2c3c(c1)C(c1ccccc1)=N[C@@H](NC(=O)c1cccnc1)C(=O)N3CC2 ?
[reply] n

[ask] Hi, sorry to bother you, what did the test record for CCC1(c2ccccc2)C(=O)N=C(O)NC1=O (stereo not given) ?
[reply] n

----------
- Read-out: Glutamate-cysteine ligase regulatory (GCLM), GCLM (gene 2730)
- testDetails: LTEA_HepaRG_GCLM: Life Technologies and Expression Analysis (LTEA) Assay for Glutamate-cysteine ligase regulatory (GCLM) using HepaRG (AID 2283500)
- protocolConditions: mRNA level, 48 h; actives raise or lower the signal
The source made the active and inactive calls. How the source made its calls: active means hit-call score of the fitted dose curve at least 0.9, where 1 is the maximum; inactive means score below 0.9.
Respond with a class label; see active, inactive

[[record]]
molecule = "Nc1ccc2ccccc2c1"
labelclass = "inactive"

[[record]]
molecule = "CCCCCCCc1ccc(O)cc1"
labelclass = "inactive"

[[record]]
molecule = "c1ccc(OP(Oc2ccccc2)Oc2ccccc2)cc1"
labelclass = "inactive"


[ask] Hi, sorry to bother you, what did the test record for Cc1ccc([N+](=O)[O-])cc1C ?
[reply] inactive

----------
- Read-out: Interleukin-1 alpha (IL1a), IL1A (gene 3552)
- testDetails: BSK_BE3C_IL1a: BioMAP Diversity Plus: BE3C Assay for Interleukin-1 alpha (IL1a) Biomarker Activity (AID 2283016)
- protocolConditions: primary human bronchial epithelial cells; actives raise or lower the signal
Activity calls are given as the source filed them. The calls were made as follows: active = hit-call score of the fitted dose curve at least 0.9, where 1 is the maximum; inactive = score below 0.9.
Respond with a class label; see Y = active, N = inactive

Worked cases, answers included:
[[record]]
molecule = "CC(C)(C)c1ccc(O)cc1"
labelclass = "N"

[[record]]
molecule = "CCCCCCCc1ccc(O)cc1"
labelclass = "Y"

[[record]]
molecule = "ClC1=C(Cl)C2(Cl)C3C(Cl)C(Cl)CC3C1(Cl)C2(Cl)Cl (configuration not stated)"
labelclass = "N"

[[record]]
molecule = "CCC(C)(C)c1ccc(O)cc1"
labelclass = "N"

[[record]]
molecule = "OCC(F)(F)OC(F)(F)C(F)(F)OC(F)(F)CO"
labelclass = "N"

[[record]]
molecule = "c1cc2c3c(cccc3c1)CC2"
labelclass = "N"

[[record]]
molecule = "CCN(CC)c1ccccc1"
labelclass = "N"

[[record]]
molecule = "CCCCC(CC)COP(=O)(Oc1ccccc1)Oc1ccccc1 (configuration not stated)"
labelclass = "Y"

[[record]]
molecule = "CCOP(=S)(OCC)SCSc1ccc(Cl)cc1"
labelclass = "Y"

[[record]]
molecule = "CCOP(=S)(OCC)SCS(=O)(=O)CC"
labelclass = "N"


[ask] Hi, sorry to bother you, what did the test record for Cc1c([N+](=O)[O-])cc2c(c1[N+](=O)[O-])C(C)(C)CC2(C)C ?
[reply] N

[ask] Hi, sorry to bother you, what did the test record for O=P(Oc1ccccc1)(Oc1ccccc1)Oc1ccccc1 ?
[reply] N

[ask] Hi, sorry to bother you, what did the test record for ClC(Cl)(Cl)c1ccccc1 ?
[reply] N

[ask] Hi, sorry to bother you, what did the test record for c1ccc(OP(Oc2ccccc2)Oc2ccccc2)cc1 ?
[reply] N

[ask] Hi, sorry to bother you, what did the test record for C=CC(=O)OCC(CC)(COC(=O)C=C)COC(=O)C=C ?
[reply] Y

[ask] Hi, sorry to bother you, what did the test record for Nc1cc2c3c(c1)C(c1ccccc1)=N[C@@H](NC(=O)c1cccnc1)C(=O)N3CC2 ?
[reply] N

[ask] Hi, sorry to bother you, what did the test record for CCCCC(CC)COC(=O)c1c(Br)c(Br)c(Br)c(Br)c1C(=O)OCC(CC)CCCC (configuration not stated) ?
[reply] N

[ask] Hi, sorry to bother you, what did the test record for N#Cc1c(-c2ccc(Cl)cc2)[nH]c(C(F)(F)F)c1Br ?
[reply] Y

[ask] Hi, sorry to bother you, what did the test record for c1ccc2c(c1)Nc1ccccc1S2 ?
[reply] N

[ask] Hi, sorry to bother you, what did the test record for OCC1CO1 (configuration not stated) ?
[reply] N

----------
- testDetails: BSK_BT_Bcell_Proliferation: Viability Assessment in the BioMAP Diversity Plus: BT Assay for B cell Proliferation (AID 2284227)
- protocolConditions: primary human B cells with PBMC
Active and inactive are the calls of the source. How the source made its calls: active means hit-call score of the fitted dose curve at least 0.9, where 1 is the maximum; inactive means score below 0.9.
measurementKind: AC50

Guide cases for AC50, answers given:
[[record]]
compound = "OCC(F)(F)OC(F)(F)C(F)(F)OC(F)(F)C(F)(F)OC(F)(F)CO"
measurementkind = "AC50"
observedvalue = "inactive"

[[record]]
compound = "CC(Cl)CN(C)C (configuration not stated)"
measurementkind = "AC50"
observedvalue = "inactive"

[[record]]
compound = "Cc1c([N+](=O)[O-])cc2c(c1[N+](=O)[O-])C(C)(C)CC2(C)C"
measurementkind = "AC50"
observedvalue = "20 µM (active)"

[[record]]
compound = "COP(=O)(O)OC"
measurementkind = "AC50"
observedvalue = "inactive"

[[record]]
compound = "Cc1ccc2c(c1N)C(=O)c1ccccc1C2=O"
measurementkind = "AC50"
observedvalue = "inactive"

[[record]]
compound = "Nc1ccc([N+](=O)[O-])cc1Cl"
measurementkind = "AC50"
observedvalue = "inactive"


Field: next compound
[ask] Which AC50 reading was recorded for the compound O=C(O)C(F)(F)C(F)(F)C(=O)O ?
[reply] inactive

----------
- testDetails: ATG_ERE_CIS: Attagene CIS-FACTORIAL HepG2 Assay for Estrogen Response Element (ERE) (AID 2282940)
- protocolConditions: HepG2 ERE cis-reporter, Attagene RNA transcript; actives raise or lower the signal
Activity calls are given as the source filed them. The calls were made as follows: active = hit-call score of the fitted dose curve at least 0.9, where 1 is the maximum; inactive = score below 0.9.
Respond with a class label; see 1.0 (active), 0.0 (inactive)

Worked cases, answers included:
[[record]]
compound = "CCOP(=S)(NC(C)C)Oc1ccccc1C(=O)OC(C)C (centres undefined)"
labelclass = 1.0

[[record]]
compound = "O=c1ssc(Cl)c1Cl"
labelclass = 0.0

[[record]]
compound = "CCCCc1ccc(O)cc1"
labelclass = 1.0


[ask] Hi, sorry to bother you, what did the test record for FC(F)(F)c1ccc(Cl)cc1 ?
[reply] 0.0

[ask] Hi, sorry to bother you, what did the test record for N#Cc1cc([N+](=O)[O-])ccc1N ?
[reply] 0.0

[ask] Hi, sorry to bother you, what did the test record for N#Cc1c(-c2ccc(Cl)cc2)[nH]c(C(F)(F)F)c1Br ?
[reply] 0.0

[ask] Hi, sorry to bother you, what did the test record for O=C(O)C=CC(F)(C(F)(F)F)C(F)(F)F ?
[reply] 0.0

[ask] Hi, sorry to bother you, what did the test record for CCN(CC)c1ccccc1 ?
[reply] 0.0

[ask] Hi, sorry to bother you, what did the test record for CC(Cl)CN(C)C (centres undefined) ?
[reply] 0.0

----------
- testDetails: ATG_XTT_Cytotoxicity: Cytotoxicity Assessment in the Attagene TRANS-FACTORIAL HepG2 Assay (AID 2283584)
- Experimental: ATG_XTT_Cytotoxicity is a cell-based, single-readout assay that uses HepG2, a human liver cell line, with measurements taken at 24 hours after chemical dosing in a 24-well plate.ATG_XTT_Cytotoxicity is one of one assay component(s) measured or calculated from the ATG_XTT_Cytotoxicity assay. […] This assay endpoint, ATG_XTT_Cytotoxicity, was analyzed in the positive analysis fitting direction relative to DMSO as the negative control and baseline of activity. […]
Records with an inconclusive call do not appear. Active and inactive are the calls of the source. The calls were made as follows: active = hit-call score of the fitted dose curve at least 0.9, where 1 is the maximum; inconclusive = response in the unintended direction; inactive = score below 0.9.
Respond with a class label; see active, inactive

Worked cases, answers included:
[[record]]
compound = "CO/N=C(/C(=O)OC)c1ccccc1COc1ccccc1C"
labelclass = "inactive"

[[record]]
compound = "Cn1[nH]nnc1=S"
labelclass = "inactive"

[[record]]
compound = "CCCCC(CC)COP(=O)(Oc1ccccc1)Oc1ccccc1 (centres undefined)"
labelclass = "inactive"

[[record]]
compound = "O=P(Oc1ccccc1)(Oc1ccccc1)Oc1ccccc1"
labelclass = "inactive"

[[record]]
compound = "Nc1ccc2ccccc2c1"
labelclass = "inactive"

[[record]]
compound = "CCOP(=S)(OCC)SCS(=O)(=O)CC"
labelclass = "inactive"

[[record]]
compound = "OCC1CO1 (centres undefined)"
labelclass = "inactive"

[[record]]
compound = "Nc1ccc([N+](=O)[O-])cc1Cl"
labelclass = "inactive"


[ask] Hi, sorry to bother you, what did the test record for Oc1ccc(I)cc1 ?
[reply] inactive

[ask] Hi, sorry to bother you, what did the test record for N#Cc1c(-c2ccc(Cl)cc2)[nH]c(C(F)(F)F)c1Br ?
[reply] inactive

[ask] Hi, sorry to bother you, what did the test record for Cc1c([N+](=O)[O-])cc2c(c1[N+](=O)[O-])C(C)(C)CC2(C)C ?
[reply] inactive

[ask] Hi, sorry to bother you, what did the test record for C/C(=N\NC(=O)Nc1cc(F)cc(F)c1)c1ncccc1C(=O)O ?
[reply] inactive

[ask] Hi, sorry to bother you, what did the test record for ClC1=C(Cl)C2(Cl)C3C(Cl)C(Cl)CC3C1(Cl)C2(Cl)Cl (centres undefined) ?
[reply] active

[ask] Hi, sorry to bother you, what did the test record for CC(Cl)CN(C)C (centres undefined) ?
[reply] inactive

[ask] Hi, sorry to bother you, what did the test record for c1ccc2c(c1)sc1ccccc12 ?
[reply] inactive

[ask] Hi, sorry to bother you, what did the test record for Cc1ccc2c(c1N)C(=O)c1ccccc1C2=O ?
[reply] inactive

[ask] Hi, sorry to bother you, what did the test record for Nc1ccc(Sc2ccc(N)cc2)cc1 ?
[reply] inactive

[ask] Hi, sorry to bother you, what did the test record for CCOC(=O)c1ccccc1N ?
[reply] inactive

[ask] Hi, sorry to bother you, what did the test record for Cc1ccc([N+](=O)[O-])cc1C ?
[reply] inactive

[ask] Hi, sorry to bother you, what did the test record for CC1=C(C(=O)Nc2ccccc2)S(=O)(=O)CCO1 ?
[reply] inactive

[ask] Hi, sorry to bother you, what did the test record for CCOP(=S)(OCC)SCSc1ccc(Cl)cc1 ?
[reply] inactive
